Below is a list of entries, each paired with its recorded activity change, negative = inhibition value.
target: D(1A) dopamine receptor (Homo sapiens); assay: Antagonist of Human D 1 Dopamine Receptor: qHTS; settings: HEK293 TREx D1 cells, calcium flux, dopamine EC80; at 10 µM; stronger effect = lower value; further: on the % scale 0 is the no-effect control and ±100 the full control effect
Out of some 360,000 compounds screened, about 11,000 (3.1%) were called active. The full list was thinned out, with actives kept by preference.

Per the record, `CN(C)CCCn1c(SCc2ccc(Cl)cc2)nnc1-c1ccncc1` has activity change, negative = inhibition of 10.2% (inactive)

Per the record, `Cc1ccc(-c2cc(C(=O)NCc3cn(C)nc3C)c3cc(Br)ccc3n2)cc1` has activity change, negative = inhibition of -1.17% (inactive)

Per the record, `COc1cccc(NC(=O)CN(C)C(=O)/C=C/c2cc(OC)ccc2OC)c1` has activity change, negative = inhibition of 24.2% (inactive)

Per the record, `COc1ccc(NC(=O)CCN2CCN(CCO)CC2)cc1` has activity change, negative = inhibition of -14% (inactive)

Per the record, CC1CCCN(Cc2c(O)ccc3c(=O)c(Oc4ccc(C(C)(C)C)cc4)c(C(F)(F)F)oc23)C1 (stereo not given) has activity change, negative = inhibition of 11.8% (inactive)

Per the record, Cc1ccc(S(=O)(=O)N2CCCC(C(=O)N3CCN(C)CC3)C2)cc1 (stereo not given) has activity change, negative = inhibition of 10.2% (inactive)

Per the record, `COc1ccc(N2CCN(S(=O)(=O)c3ccc4c(c3)N(C(C)=O)CCO4)CC2)cc1` has activity change, negative = inhibition of -18% (inactive)

Per the record, `N#Cc1nc(Nc2cc(F)cc(Cl)c2)nc(NC2CCCC2)n1` has activity change, negative = inhibition of -27% (inactive)

Per the record, `COc1cccc(N2CCN(S(=O)(=O)c3ccc4c(c3)CCCN4C(C)=O)CC2)c1` has activity change, negative = inhibition of -35.4% (active)

Per the record, `O=c1cc(CCl)nc2scc(-c3ccccc3)n12` has activity change, negative = inhibition of -12.4% (inactive)

---

target: D(1A) dopamine receptor (Homo sapiens) (UniProt P21728); assay: Antagonist of Human D 1 Dopamine Receptor: qHTS; settings: HEK293 TREx D1 cells, calcium flux, dopamine EC80; at 10 µM; further: on the % scale 0 is the no-effect control and ±100 the full control effect
Sequence (P21728 whole entry, looked up): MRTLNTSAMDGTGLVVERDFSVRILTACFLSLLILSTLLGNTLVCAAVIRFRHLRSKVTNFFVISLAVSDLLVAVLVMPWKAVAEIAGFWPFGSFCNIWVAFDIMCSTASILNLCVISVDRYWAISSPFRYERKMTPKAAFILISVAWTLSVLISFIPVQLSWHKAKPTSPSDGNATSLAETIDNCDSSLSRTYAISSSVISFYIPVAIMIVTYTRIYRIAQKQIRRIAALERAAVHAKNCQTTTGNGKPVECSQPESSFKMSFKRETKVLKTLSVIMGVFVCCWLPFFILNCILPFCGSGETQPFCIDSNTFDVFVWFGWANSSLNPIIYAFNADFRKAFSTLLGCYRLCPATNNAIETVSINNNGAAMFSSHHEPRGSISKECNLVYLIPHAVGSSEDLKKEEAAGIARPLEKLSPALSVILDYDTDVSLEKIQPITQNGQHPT
The whole screen tested about 360,000 compounds, of which about 11,000 (3.1%) were called active. Rule as the data show it: active = activity change below about -30%; inactive = the rest. Shown is part of a subset that was picked to be rich in actives.
Respond using exactly one of the listed classes: true for active, false for inactive

query: Recorded test call requested for `O=C(Nc1ccc(F)cc1F)c1cnn(-c2ccc(F)cc2)c1-n1cccc1`
result: false

query: Recorded test call requested for `CN(C)S(=O)(=O)N1CCN(c2ccc([N+](=O)[O-])cc2)CC1`
result: true

query: Recorded test call requested for `CC(C)c1ccc(NC(=O)Cn2nnc(C(=O)NCCc3ccccc3)c2N)cc1`
result: false

query: Recorded test call requested for `O=[N+]([O-])c1ccc(N2CCN(c3ccc(O)cc3)CC2)c(Cl)c1`
result: false

query: Recorded test call requested for `CCOCCCNC(=O)c1ccc2nc(CCc3ccccc3)oc2c1`
result: false

---

target: D(1A) dopamine receptor (Homo sapiens); assay: Antagonist of Human D 1 Dopamine Receptor: qHTS; settings: HEK293 TREx D1 cells, calcium flux, dopamine EC80; at 10 µM; further: on the % scale 0 is the no-effect control and ±100 the full control effect
Hit rate of the full screen: of about 360,000 compounds, about 11,000 (3.1%) were called active. No stated cut-off is given here; in the data, active means activity change below about -30%; inactive means the rest. This excerpt belongs to a sample that is enriched for actives.
Respond using exactly one of the listed classes: active, inactive

COc1ccccc1NC(=O)Nc1nnc(Cc2ccc(F)cc2)s1 :: active

Then this compound:
query: Recorded test call requested for `O=C(CCCN1CCc2[nH]c3ccc(F)cc3c2C1)c1ccc(F)cc1`
result: active

Recorded values, source PubChem BioAssay AID504652.
